- Test system: SH-SY5Y cells
- Assay Explanation: Nuclear count from microscopy images (cellular growth and toxicity); also: reference of the scale not given here
- Measurement Parameters: PKIS2 primary screening
Nuclear Count by entry:

INPUT: Name the recorded Nuclear Count for "Cc1ccc(-c2nc(Nc3ccncc3)c3ccccc3n2)s1" .
OUTPUT: 75.74

* * *

- Tested on: endogenous TFE3
- Assay Explanation: TFE3 nuclear translocation, immunocytochemistry high-content imaging
- Type: cell-based
- Measurement Parameters: PKIS2 primary screening
Measured Metric: TFE3 % (%)
Quick reminder: number only, in %, skip the unit.

Examples from the recorded data:
>>> value("Cl.Cl.c1ccc(-c2cc3ccncc3cc2OC2CCNCC2)cc1 [UNC10225463A]")
49.72
>>> value("Cl.Cn1ccc(-c2cccc(Nc3ccnc4cc(-c5nccs5)ccc34)c2)n1 [UNC10225141A]")
26.05
>>> value("Cc1cccc(-c2cc(Nc3ccncc3)c3ccccc3n2)n1")
9.28
>>> value("COc1ccc(S(=O)(=O)NC2CCN(c3cc(C)nc(Nc4cccc(C#N)c4)n3)CC2)cc1")
12.26
>>> value("Cc1csc(-c2nc(Nc3ccncc3)c3ccccc3n2)n1")
13.20
>>> value("CC(C)S(=O)(=O)N1CCN(Cc2ccc3c(c2)nc(NC(=O)c2ccsc2)n3C[C@H](O)c2ccccc2)CC1")
6.25
>>> value("C[C@@H](Oc1cc(-n2cnc3cc(-c4ccnc(NCCS(C)(=O)=O)c4)ccc32)sc1C(N)=O)c1ccccc1Cl [UNC10225234A]")
12.54
>>> value("Cc1ccc2c(-c3ccncc3)c(-c3ccc(F)cc3)nn2c1.Cl [UNC10225321A]")
14.14

INPUT: Name the recorded TFE3 % for CC(C)(C)OC(=O)NC1CCCN(c2cc(-c3ccc4c(N)n[nH]c4c3)nc(N)n2)C1 (centres unmarked) .
OUTPUT: 7.82

INPUT: Name the recorded TFE3 % for Cc1nccc(-c2c(-c3ccc(F)cc3)ncn2CCCN2CCOCC2)n1.Cl [UNC10225493A] .
OUTPUT: 13.96
